Quick reference for CD28 Fold change to WT CD80 among some molecules
target: CD28 (Homo sapiens, UniProt P10747); assay: Flow binding to Jurkat/IL2 reporter cells (CD28); parameters: host or cells: Jurkat cells expressing an IL-2-luciferase reporter; conditions: Table E10; 33.3 nM; relative to CD80 WT IgV-Fc
Give the figure only, with no unit attached.

molecule	CD28 Fold change to WT CD80
M43I/M47L/A71G (protein) VIHVTKEVKEVATLSCGHNVSVEELAQTRIYWQKEKKMVLTMISGDLNIWPEYKNRTIFDITNNLSIVILGLRPSDEGTYECVVLKYEKDAFKREHLAEVTLSVKAD	15.2

Now consider the entry below.
Prompt line: Quick one: CD28 Fold change to WT CD80 for E35D/D46E/M47I (protein) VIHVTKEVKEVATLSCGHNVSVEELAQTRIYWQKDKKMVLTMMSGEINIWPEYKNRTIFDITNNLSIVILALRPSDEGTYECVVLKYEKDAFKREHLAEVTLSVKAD ?
Response line: 15.2
